Test: The drug is tested on Z-005 corresponding to metagenome with ENA study accession number: PRJEB37062 and ENA sample accession number: ERS12561805 for biotransformation under anaerobic condition. The drug concentrations were measured over 9 timepoints collected between 0 and 24 hours of incubation by liquid-chromatography-coupled mass spectrometry (LC–MS); note: call rule not given here
Conditions: 2 µM
OBSERVATION_TYPE: Bacterial Biotransformation

Reference set, count: 5
[[record]]
compound = "CCN(CC)CCNC(=O)c1ccc(NC(C)=O)cc1 [ACECAINIDE]"
observation_type = "Bacterial Biotransformation"
measured_value = "Compound NOT metabolized"

[[record]]
compound = "O=C(NC(Cc1cc(=O)[nH]c2ccccc12)C(=O)O)c1ccc(Cl)cc1 (configuration not stated) [REBAMIPIDE]"
observation_type = "Bacterial Biotransformation"
measured_value = "Compound NOT metabolized"

[[record]]
compound = "C#C[C@]1(OC(C)=O)CC[C@H]2[C@@H]3CCC4=C[C@@H](OC(C)=O)CC[C@@H]4[C@H]3CC[C@@]21C [ETHYNODIOL DIACETATE]"
observation_type = "Bacterial Biotransformation"
measured_value = "Compound metabolized"

[[record]]
compound = "CC(=O)OCC(=O)NCCCOc1cccc(CN2CCCCC2)c1 [ROXATIDINE ACETATE]"
observation_type = "Bacterial Biotransformation"
measured_value = "Compound metabolized"

[[record]]
compound = "C#C[C@]1(OC(C)=O)CC[C@H]2[C@@H]3CCC4=CC(=O)CC[C@@H]4[C@H]3CC[C@@]21C [NORETHINDRONE ACETATE]"
observation_type = "Bacterial Biotransformation"
measured_value = "Compound metabolized"


Give its Bacterial Biotransformation value. Item: CC[C@H](C)C(=O)O[C@H]1CCC=C2C=C[C@H](C)[C@H](CC[C@@H]3C[C@@H](O)CC(=O)O3)[C@H]21
Compound NOT metabolized

Give its Bacterial Biotransformation value. Item: CN1C[C@H](C(=O)N[C@]2(C)O[C@@]3(O)[C@@H]4CCCN4C(=O)[C@H](Cc4ccccc4)N3C2=O)C[C@@H]2c3cccc4[nH]cc(c34)C[C@H]21.CS(=O)(=O)O [DIHYDROERGOTAMINE MESYLATE]
Compound NOT metabolized

Give its Bacterial Biotransformation value. Item: CN1CCN2c3ccccc3Cc3ccccc3C2C1 (configuration not stated)
Compound NOT metabolized

Give its Bacterial Biotransformation value. Item: N=C(N)NC(=O)Cc1c(Cl)cccc1Cl
Compound NOT metabolized

Give its Bacterial Biotransformation value. Item: COc1cc2nc(N3CCN(C(=O)C4CCCO4)CC3)nc(N)c2cc1OC (configuration not stated)
Compound metabolized

Give its Bacterial Biotransformation value. Item: CCc1oc2ccccc2c1C(=O)c1cc(Br)c(O)c(Br)c1
Compound metabolized

Give its Bacterial Biotransformation value. Item: CSc1ccc2c(c1)C(N1CCN(C)CC1)Cc1ccccc1S2.O=C(O)/C=C\C(=O)O (configuration not stated)
Compound metabolized

Give its Bacterial Biotransformation value. Item: O=C1CN2Cc3c(ccc(Cl)c3Cl)N=C2N1 [ANAGRELIDE]
Compound NOT metabolized
